Cited source for all entries: patent US20250339569A1

protocolText: In vivo efficacy, biodistribution and tolerability of 225Ac-DPI-4452 in SK-RC-52 xenograft mouse model
Design: species or system NMRI nude mice
testContext: female, NMRI nude, mouse, SK-RC-52 tumor, iv, total radioactivity; SK-RC-52 model, 15 kBq, 4 hours after dosing, ex vivo gamma counter; read-out: tumor uptake
readoutLabel: tissue uptake at 4 h (%ID/g)
Quick reminder: number only, in %ID/g, skip the unit.

Could you tell me which tissue uptake at 4 h is on file for CC(C)C[C@@H]1NC(=O)[C@H](Cc2cccc(NC(=O)CCCS(N)(=O)=O)c2)NC(=O)[C@H](CC(=O)O)NC(=O)[C@H]2CCCN2C(=O)[C@H](CCC(=O)O)NC(=O)[C@@H](NC(=O)[C@H](CCC(N)=O)NC(=O)CN2CCN(C(=O)CN3CCN(CC(=O)O)CCN(CC(=O)O)CCN(CC(=O)O)CC3)CC2)CSCc2cccc(c2)CSC[C@@H](C(N)=O)NC(=O)[C@H](CO)NC(=O)[C@H](Cc2c[nH]c3ccccc23)NC(=O)[C@H]([C@@H](C)O)NC1=O [^225Ac-DPI-4452, metal not drawn] ? 39.1

----------
protocolText: Biodistribution study (SPECT/CT) in SK-RC-52 tumor-bearing mice with or without gelofusine
Format: in vivo, NMRI nude mice
testContext: female, NMRI nude, mouse, in vivo, iv, total radioactivity, SK-RC-52, In-111-labeled, no gelofusine; Mean ± SEM; read-out: Kidney uptake at 24 h p.i.
readoutLabel: tissue uptake at 24 h (%ID/g)
Answer in %ID/g, number only, no unit symbol.

Given the compound CC(C)C[C@@H]1NC(=O)[C@H](Cc2cccc(NC(=O)CCCS(N)(=O)=O)c2)NC(=O)[C@H](CC(=O)O)NC(=O)[C@H]2CCCN2C(=O)[C@H](CCC(=O)O)NC(=O)[C@@H](NC(=O)[C@H](CCC(N)=O)NC(=O)CN2CCN(C(=O)CN3CCN(CC(=O)O)CCN(CC(=O)O)CCN(CC(=O)O)CC3)CC2)CSCc2cccc(c2)CSC[C@@H](C(N)=O)NC(=O)[C@H](CO)NC(=O)[C@H](Cc2c[nH]c3ccccc23)NC(=O)[C@H]([C@@H](C)O)NC1=O [DPI-4452] , what is its reported tissue uptake at 24 h? 0.95

----------
protocolText: Extended single-dose toxicity study including safety pharmacology endpoints, i.v. bolus (GLP)
Assay type: in vivo, beagle dogs
testContext: beagle, dog, plasma, iv, 16 ug/kg; Female; 16 μg/kg single i.v. bolus; mean n = 3
readoutLabel: clearance

Sample CC(C)C[C@@H]1NC(=O)[C@H](Cc2cccc(NC(=O)CCCS(N)(=O)=O)c2)NC(=O)[C@H](CC(=O)O)NC(=O)[C@H]2CCCN2C(=O)[C@H](CCC(=O)O)NC(=O)[C@@H](NC(=O)[C@H](CCC(N)=O)NC(=O)CN2CCN(C(=O)CN3CCN(CC(=O)O)CCN(CC(=O)O)CCN(CC(=O)O)CC3)CC2)CSCc2cccc(c2)CSC[C@@H](C(N)=O)NC(=O)[C@H](CO)NC(=O)[C@H](Cc2c[nH]c3ccccc23)NC(=O)[C@H]([C@@H](C)O)NC1=O — what was its clearance? 21.2 mL/min/kg

----------
protocolText: Dose range finding study by intravenous route with toxicokinetics
Type: in vivo, beagle dogs
testContext: male, beagle, dog, plasma, iv; Day 9; 0.4 mg/kg i.v.; mean n = 2; read-out: Vss
readoutLabel: Vd

I am curious: what Vd value has been reported for CC(C)C[C@@H]1NC(=O)[C@H](Cc2cccc(NC(=O)CCCS(N)(=O)=O)c2)NC(=O)[C@H](CC(=O)O)NC(=O)[C@H]2CCCN2C(=O)[C@H](CCC(=O)O)NC(=O)[C@@H](NC(=O)[C@H](CCC(N)=O)NC(=O)CN2CCN(C(=O)CN3CCN(CC(=O)O)CCN(CC(=O)O)CCN(CC(=O)O)CC3)CC2)CSCc2cccc(c2)CSC[C@@H](C(N)=O)NC(=O)[C@H](CO)NC(=O)[C@H](Cc2c[nH]c3ccccc23)NC(=O)[C@H]([C@@H](C)O)NC1=O ? 0.24 L/kg

----------
tgt: CAIX-expressing human HT-29 colorectal cancer cells (Homo sapiens)
Construct: CAIX-expressing human HT-29 colorectal cancer cells; host or cells: HT-29 human colorectal cancer cells
protocolText: FACS binding assay (IC50 determination, competition with tracer 3BP-2776 or 3BP-4149)
testContext: FACS competition on HT-29 cells, Tracer ID 3BP-2776 (10 nM, biotin-labeled), 4° C., 1 hour; read-out: pIC50 category (activity) (converted)
Starred links: 1 amine or outer side, 2 acyl side, 3 side chain; linkers in the order of their positions; H or OH if unused. Positions of bridges follow the written chain, without caps; N, C: chain ends. Non-standard residues stand in square brackets, D forms with d. Residues, ends and D or L forms follow the SMILES beside them. *: point of attachment. X3 = O=C(O)CN1CCN(CC(=O)O)CCN(CC(=O)NCCCOCCOCCOCCCN*)CCN(CC(=O)O)CC1; mXylylene = c1cc(C[*:1])cc(C[*:2])c1; Suc = O=C(CCC(=O)[*:2])[*:1]; Sar = CNCC(=O)O
readoutLabel: IC50

Which value of IC50 has been reported for CC(C)C[C@@H]1NC(=O)[C@H](Cc2c[nH]c3ccccc23)NC(=O)[C@H](CC(=O)O)NC(=O)CN(C)C(=O)[C@H](CCC(=O)O)NC(=O)[C@@H](NC(=O)[C@H](Cc2ccc(O)cc2)NC(=O)[C@@H](NC(=O)CCC(=O)NCCCOCCOCCOCCCNC(=O)CN2CCN(CC(=O)O)CCN(CC(=O)O)CCN(CC(=O)O)CC2)C(C)C)CSCc2cccc(c2)CSC[C@@H](C(N)=O)NC(=O)[C@H](C)NC(=O)[C@H](Cc2c[nH]c3ccccc23)NC(=O)[C@H]([C@@H](C)O)NC1=O [3BP-3278] ({X3-Suc}-VYCE[Sar]DWLTWAC-NH2; linker 3-12 via mXylylene) in the records? 0.01 to 0.0794 µM

Reported IC50 for CC(=O)N[C@H](C(=O)N[C@@H](Cc1ccc(O)cc1)C(=O)N[C@H]1CSCc2cccc(c2)CSC[C@@H](C(N)=O)NC(=O)[C@H](C)NC(=O)[C@H](Cc2c[nH]c3ccccc23)NC(=O)[C@H]([C@@H](C)O)NC(=O)[C@H](CC(C)C)NC(=O)[C@H](Cc2c[nH]c3ccccc23)NC(=O)[C@H](CC(=O)O)NC(=O)CNC(=O)[C@H](CCC(=O)O)NC1=O)C(C)C [3BP-3058] (Ac-VYCEGDWLTWAC-NH2; linker 3-12 via mXylylene) : what is it? < 0.01 µM

----------
protocolText: Extended single-dose toxicity study including safety pharmacology endpoints, i.v. bolus (GLP)
Type: in vivo, beagle dogs
testContext: beagle, dog, plasma, iv, 80 ug/kg; Male; 80 μg/kg single i.v. bolus; mean n = 3; read-out: Vss
readoutLabel: Vd
Please answer using the number first and the unit second.

Could you share which Vd value was measured for CC(C)C[C@@H]1NC(=O)[C@H](Cc2cccc(NC(=O)CCCS(N)(=O)=O)c2)NC(=O)[C@H](CC(=O)O)NC(=O)[C@H]2CCCN2C(=O)[C@H](CCC(=O)O)NC(=O)[C@@H](NC(=O)[C@H](CCC(N)=O)NC(=O)CN2CCN(C(=O)CN3CCN(CC(=O)O)CCN(CC(=O)O)CCN(CC(=O)O)CC3)CC2)CSCc2cccc(c2)CSC[C@@H](C(N)=O)NC(=O)[C@H](CO)NC(=O)[C@H](Cc2c[nH]c3ccccc23)NC(=O)[C@H]([C@@H](C)O)NC1=O ? 0.21 L/kg

----------
protocolText: Pharmacokinetic characterization in healthy dogs
Type: in vivo, beagle dogs
testContext: male, beagle, plasma, iv; dog, i.v. 0.1 mg/kg; read-out: terminal half-life (T1/2) (converted)
readoutLabel: half-life (min)
Write the value in min as a bare number.

Need half-life of CC(C)C[C@@H]1NC(=O)[C@H](Cc2cccc(NC(=O)CCCS(N)(=O)=O)c2)NC(=O)[C@H](CC(=O)O)NC(=O)[C@H]2CCCN2C(=O)[C@H](CCC(=O)O)NC(=O)[C@@H](NC(=O)[C@H](CCC(N)=O)NC(=O)CN2CCN(C(=O)CN3CCN(CC(=O)O)CCN(CC(=O)O)CCN(CC(=O)O)CC3)CC2)CSCc2cccc(c2)CSC[C@@H](C(N)=O)NC(=O)[C@H](CO)NC(=O)[C@H](Cc2c[nH]c3ccccc23)NC(=O)[C@H]([C@@H](C)O)NC1=O [DPI-4452] , thanks. 22.8

----------
tgt: human carbonic anhydrase IX (hCAIX-Fc) (Homo sapiens, UniProt Q16790)
Construct: purchased SinoBliological (Sino Biological) 10107-H02H
protocolText: Surface plasmon resonance assay with hCAIX-Fc
Format: binding
testContext: SPR dissociation half-life, hCAIX-Fc, 25° C.
Starred links: 1 amine or outer side, 2 acyl side, 3 side chain; linkers in the order of their positions; H or OH if unused. Positions of bridges follow the written chain, without caps; N, C: chain ends. Non-standard residues stand in square brackets, D forms with d. Residues, ends and D or L forms follow the SMILES beside them. *: point of attachment. DOTA = O=C(O)CN1CCN(CC(=O)O)CCN(CC(=O)*)CCN(CC(=O)O)CC1; mXylylene = c1cc(C[*:1])cc(C[*:2])c1; X12 = O=C(CC1CCN([*:1])CC1)[*:2]; X2 = O=C(CN1CCC(N[*:1])CC1)[*:2]; Dap = NC[C@H](N)C(=O)O
readoutLabel: t1/2 category (activity)

{"columns": ["molecule", "readoutLabel", "assayResult"],
 "data": [
  ["CC(C)C[C@@H]1NC(=O)[C@H](Cc2c[nH]c3ccccc23)NC(=O)[C@H](CC(=O)O)NC(=O)[C@H]2CCCN2C(=O)[C@H](CCC(=O)O)NC(=O)[C@@H]2CSCc3cccc(c3)CSC[C@@H](C(N)=O)NC(=O)[C@H](CNC(=O)C[C@H](NC(=O)CC3CCN(C(=O)CN4CCN(CC(=O)O)CCN(CC(=O)O)CCN(CC(=O)O)CC4)CC3)C(=O)N2)NC(=O)[C@H](Cc2c[nH]c3ccccc23)NC(=O)[C@H]([C@@H](C)O)NC1=O [3BP-4259] ({DOTA}-[X12]DCE[dP]DWLTW[Dap]C-NH2; lactam 2-11; linker 3-12 via mXylylene)", "t1/2 category (activity)", "D (t1/2≤2.0 minutes)"],
  ["CC(C)C[C@@H]1NC(=O)[C@H](Cc2c[nH]c3ccccc23)NC(=O)[C@H](CC(=O)O)NC(=O)[C@H]2CCCN2C(=O)[C@H](CCC(=O)O)NC(=O)[C@@H](NC(=O)CN2CCC(NC(=O)CN3CCN(CC(=O)O)CCN(CC(=O)O)CCN(CC(=O)O)CC3)CC2)CSCc2cccc(c2)CSC[C@@H](C(N)=O)NC(=O)[C@H](CO)NC(=O)[C@H](Cc2c[nH]c3ccccc23)NC(=O)[C@H]([C@@H](C)O)NC1=O [3BP-3858] ({DOTA}-[X2]CE[dP]DWLTWSC-NH2; linker 2-11 via mXylylene)", "t1/2 category (activity)", "D (t1/2≤2.0 minutes)"]
]}
